# Test system: Mus musculus
# Protocol description: Relative potency was determined for the compound with respect to morphine activity (1) after subcutaneous administration
# Type: functional
Non-standard residues stand in square brackets, D forms with d. Residues, ends and D or L forms follow the SMILES beside them. ξ: configuration not given here. Met(O) = CS(=O)CC[C@H](N)C(=O)O; ξA = CC(N)C(=O)O; Sar = CNCC(=O)O
// reported Relative potency per item
Could you keep your reply to the number by itself?

Below, 5 compounds whose answers are already recorded.
CN(CC(N)=O)C(=O)[C@H](Cc1ccccc1)NC(=O)[C@H](CC[S+](C)[O-])NC(=O)[C@@H](N)Cc1ccc(O)cc1 (stereo partly specified) (H-Y[Met(O)]F[Sar]-NH2) | 22.5
CN(CC(=O)O)C(=O)[C@H](Cc1ccccc1)NC(=O)[C@H](CC[S+](C)[O-])NC(=O)[C@@H](N)Cc1ccc(O)cc1 (stereo partly specified) (H-Y[Met(O)]F[Sar]-OH) | 2.3
CC(NC(=O)[C@H](Cc1ccccc1)NC(=O)[C@H](CC[S+](C)[O-])NC(=O)[C@@H](N)Cc1ccc(O)cc1)C(N)=O (stereo partly specified) (H-Y[Met(O)]F[ξA]-NH2) | 2.5
COC(=O)CN(C)C(=O)[C@H](Cc1ccccc1)NC(=O)[C@H](CC[S+](C)[O-])NC(=O)[C@H](Cc1ccc(O)cc1)N=C(N)N (stereo partly specified) | 14.4
COC(=O)CN(C)C(=O)[C@H](Cc1ccccc1)NC(=O)[C@H](CC[S+](C)[O-])NC(=O)[C@@H](N)Cc1ccc(O)cc1 (stereo partly specified) (H-Y[Met(O)]F[Sar]-OMe) | 2.7

// next entry
query: Name the reported Relative potency value associated with the compound C[C@@H](NC(=O)[C@@H](N)Cc1ccc(O)cc1)C(=O)N[C@@H](Cc1ccccc1)C(=O)NCC(N)=O (H-Y[dA]FG-NH2)
result: 0.2

* * *

# Measurement target: Mu-type opioid receptor (Cavia porcellus, UniProt P97266)
# Sequence (P97266 whole entry): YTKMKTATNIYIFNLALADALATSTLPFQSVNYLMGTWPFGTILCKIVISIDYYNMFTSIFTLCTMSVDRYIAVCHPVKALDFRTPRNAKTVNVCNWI
Non-standard residues stand in square brackets, D forms with d. Residues, ends and D or L forms follow the SMILES beside them. ξ: configuration not given here. Met(O) = CS(=O)CC[C@H](N)C(=O)O; ξA = CC(N)C(=O)O; Sar = CNCC(=O)O
Response field class: enum, chosen by comparing IC50 against low: < 6 nM; intermediate: ≥ 6 nM and < 20 nM; high: ≥ 20 nM

Examples from the recorded data:
C[C@@H](NC(=O)[C@@H](N)Cc1ccc(O)cc1)C(=O)N[C@@H](Cc1ccccc1)C(=O)NCC(N)=O (H-Y[dA]FG-NH2) | high
COC(=O)C(C)NC(=O)[C@H](Cc1ccccc1)NC(=O)[C@H](CC[S+](C)[O-])NC(=O)[C@@H](N)Cc1ccc(O)cc1 (stereo partly drawn) (H-Y[Met(O)]F[ξA]-OMe) | intermediate
C[C@@H](NC(=O)[C@@H](N)Cc1ccc(O)cc1)C(=O)N[C@@H](Cc1ccccc1)C(=O)NCC(=O)N[C@@H](Cc1ccc(O)cc1)C(=O)N1CCC[C@H]1C(=O)N[C@@H](CO)C(N)=O | low
C[S+]([O-])CC[C@H](NC(=O)[C@@H](N)Cc1ccc(O)cc1)C(=O)N[C@@H](Cc1ccccc1)C(=O)NCC(=O)O (stereo partly drawn) (H-Y[Met(O)]FG-OH) | high

query: Entry C[S+]([O-])CC[C@H](NC(=O)[C@@H](N)Cc1ccc(O)cc1)C(=O)N[C@@H](Cc1ccccc1)C(=O)NCC(N)=O (stereo partly drawn) (H-Y[Met(O)]FG-NH2) belongs to which category?
result: intermediate

query: Entry CN(CC(=O)O)C(=O)[C@H](Cc1ccccc1)NC(=O)[C@H](CC[S+](C)[O-])NC(=O)[C@@H](N)Cc1ccc(O)cc1 (stereo partly drawn) (H-Y[Met(O)]F[Sar]-OH) belongs to which category?
result: high

query: Entry COC(=O)CN(C)C(=O)[C@H](Cc1ccccc1)NC(=O)[C@H](CC[S+](C)[O-])NC(=O)[C@H](Cc1ccc(O)cc1)N=C(N)N (stereo partly drawn) belongs to which category?
result: high

query: Entry CC(NC(=O)[C@H](Cc1ccccc1)NC(=O)[C@H](CC[S+](C)[O-])NC(=O)[C@@H](N)Cc1ccc(O)cc1)C(N)=O (stereo partly drawn) (H-Y[Met(O)]F[ξA]-NH2) belongs to which category?
result: intermediate
